test.system: HDAC2 (Homo sapiens)
Sequence (Q92769 whole entry): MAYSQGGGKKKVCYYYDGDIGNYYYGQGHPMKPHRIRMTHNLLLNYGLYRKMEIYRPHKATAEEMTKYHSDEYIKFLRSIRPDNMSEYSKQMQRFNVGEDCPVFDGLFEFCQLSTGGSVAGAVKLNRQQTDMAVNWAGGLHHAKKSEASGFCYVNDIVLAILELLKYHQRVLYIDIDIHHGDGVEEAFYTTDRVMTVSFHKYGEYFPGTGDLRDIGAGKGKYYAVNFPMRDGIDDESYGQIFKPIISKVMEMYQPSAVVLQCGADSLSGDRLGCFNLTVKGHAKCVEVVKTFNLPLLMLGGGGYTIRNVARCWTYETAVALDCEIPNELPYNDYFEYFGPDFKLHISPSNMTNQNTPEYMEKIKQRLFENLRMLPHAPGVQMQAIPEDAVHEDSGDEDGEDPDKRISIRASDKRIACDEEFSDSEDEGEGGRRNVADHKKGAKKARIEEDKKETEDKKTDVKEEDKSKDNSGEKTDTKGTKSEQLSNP

{"columns": ["molecule", "test.system", "unit.tag", "IC50"],
 "data": [
  ["CCC(CC)(c1ccc(OCCCCCC(=O)NO)cc1)c1ccc(OCC(O)C(C)(C)C)c(C)n1 (stereo not shown)", "HDAC2 (Homo sapiens)", "µM", 4.18]
]}

====

test.system: UniProtKB Q969S8
Sequence (Q969S8 whole entry): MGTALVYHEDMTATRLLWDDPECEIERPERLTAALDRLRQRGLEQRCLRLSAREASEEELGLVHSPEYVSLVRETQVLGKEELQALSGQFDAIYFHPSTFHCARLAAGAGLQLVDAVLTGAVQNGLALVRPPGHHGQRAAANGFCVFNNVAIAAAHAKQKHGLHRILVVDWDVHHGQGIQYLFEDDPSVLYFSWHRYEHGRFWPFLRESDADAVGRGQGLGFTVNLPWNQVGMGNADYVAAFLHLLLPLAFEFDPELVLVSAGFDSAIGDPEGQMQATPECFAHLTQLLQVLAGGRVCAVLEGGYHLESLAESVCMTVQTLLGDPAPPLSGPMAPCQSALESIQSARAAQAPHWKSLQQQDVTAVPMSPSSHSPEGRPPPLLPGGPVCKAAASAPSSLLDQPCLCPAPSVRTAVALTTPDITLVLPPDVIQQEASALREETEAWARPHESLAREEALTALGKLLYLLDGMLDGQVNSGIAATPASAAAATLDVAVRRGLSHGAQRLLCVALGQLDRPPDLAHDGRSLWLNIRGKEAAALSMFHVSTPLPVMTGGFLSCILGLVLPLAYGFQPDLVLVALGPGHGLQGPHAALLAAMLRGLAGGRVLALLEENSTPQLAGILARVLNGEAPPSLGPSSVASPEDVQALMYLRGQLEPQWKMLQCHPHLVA
pIC50: −log10 of the molar value.

{"columns": ["compound", "test.system", "pIC50"],
 "data": [
  ["Cn1cc(CNCC2CCN(c3ncc(C(=O)NO)cn3)CC2)c2ccccc21 [Quisinostat]", "UniProtKB Q969S8", 8.34]
]}
